TARGET_ENTITY: human B7-H3 (4Ig) protein (his tag) (human) (UniProt Q5ZPR3)
PROTOCOL_NOTES: SPR (Biacore T200), antibody captured on Protein A chip, B7-H3 injected, 1:1 model
ASSAY_READOUT: pKd
Note on pKd: it is the negative log10 of concentration, concentration in mol/L.

Sample 126C10B10 (antibody, V domains shown) VH: GVQLQQSGAELVKPGASVKLSCTGSGFNIKDPYIHWVKQRPEQGLEWIGRIDPANGNTKYGPRFQGRATMTADTSSNTANLQLSSLTSEDTAVYYCTTWNYYLSRGFDYWGQGTTLTVSS VL: QIVLTQSPAIMSASPGEKVTMTCSARSSVTYMHWYQQKSGTSPKRWIYDTSKLASGVPARFSGSGSGTSYSLTISSMEAEDAATYYCQQWTSNPLTFGAGTKLELK ; pKd observed: 9.08
